So I've got a bunch of molecules here, and I need their melting point values.

# melting point (molecule: CC(=O)c1c(C)cc2oc(=O)cc(C)c2c1OCCCCCN1CCN(c2ccccc2C#N)CC1 ) is 116 to 118 °C

# melting point (molecule: CC(=O)c1c(OCCCCCN2CCN(c3cc(C)cc(C)c3)CC2)ccc2c(C)cc(=O)oc12 ) is 113 to 115 °C

# melting point (molecule: Cc1cc(OCCBr)c2c(C)cc(=O)oc2c1 ) is 121 to 123 °C

# melting point (molecule: Cc1cc(OCCCCCN2CCN(c3cccc(Br)c3)CC2)c2c(C)cc(=O)oc2c1 ) is 107 to 109 °C

# melting point (molecule: CC(=O)c1c(C)cc2oc(=O)cc(C)c2c1OCCCCCN1CCN(c2cccc(F)c2)CC1 ) is 150 to 152 °C

# melting point (molecule: Cc1ccc(C)c(N2CCN(CCOc3cc(C)cc4oc(=O)cc(C)c34)CC2)c1 ) is 119 to 120 °C

# melting point (molecule: CC(=O)c1c(C)cc2oc(=O)cc(C)c2c1OCCN1CCN(c2cccc(Cl)c2Cl)CC1 ) is 162 to 163 °C

# melting point (molecule: CC(=O)c1c(C)cc2oc(=O)cc(C)c2c1OCCCCCN1CCN(c2ccccc2Br)CC1 ) is 108 to 109 °C

# melting point (molecule: Cc1cc(OCCN2CCN(c3ccccc3F)CC2)c2c(C)cc(=O)oc2c1 ) is 121 to 123 °C

# melting point (molecule: CC(=O)c1c(OCCN2CCN(c3cccc(F)c3)CC2)ccc2c(C)cc(=O)oc12 ) is 86 to 88 °C

# melting point (molecule: Cc1cc(OCCN2CCN(c3cccc(Cl)c3Cl)CC2)c2c(C)cc(=O)oc2c1 ) is 142 to 145 °C

# melting point (molecule: CC(=O)c1c(C)cc2oc(=O)cc(C)c2c1OCCN1CCN(c2ccccc2C#N)CC1 ) is 153 to 155 °C

# melting point (molecule: CC(=O)c1c(OCCCCCN2CCN(c3ccccc3Br)CC2)ccc2c(C)cc(=O)oc12 ) is 102 to 103 °C

# melting point (molecule: Cc1cc(C)cc(N2CCN(CCCCCOc3cc(C)cc4oc(=O)cc(C)c34)CC2)c1 ) is 104 to 106 °C

# melting point (molecule: Cc1cc(C)cc(N2CCN(CCOc3cc(C)cc4oc(=O)cc(C)c34)CC2)c1 ) is 149 to 150 °C

# melting point (molecule: CC(=O)c1c(OCCCCCN2CCN(c3ccccc3C#N)CC2)ccc2c(C)cc(=O)oc12 ) is 59 to 61 °C

# melting point (molecule: COc1ccccc1N1CCN(CCCCCOc2cc(C)cc3oc(=O)cc(C)c23)CC1 ) is 66 to 68 °C

# melting point (molecule: CC(=O)c1c(C)cc2oc(=O)cc(C)c2c1OCCCCCN1CCN(c2cccc(Br)c2)CC1 ) is 100 to 102 °C

# melting point (molecule: CC(=O)c1c(OCCN2CCN(c3ccccc3F)CC2)ccc2c(C)cc(=O)oc12 ) is 137 to 139 °C

# melting point (molecule: CC(=O)c1c(C)cc2oc(=O)cc(C)c2c1OCCBr ) is 168 to 169 °C

# melting point (molecule: CC(=O)c1c(C)cc2oc(=O)cc(C)c2c1OCCN1CCN(c2cccc(F)c2)CC1 ) is 135 to 136 °C

# melting point (molecule: CC(=O)c1c(C)cc2oc(=O)cc(C)c2c1OCCCCCN1CCN(c2cccc(Cl)c2Cl)CC1 ) is 129 to 130 °C

# melting point (molecule: Cc1cc(OCCCCCN2CCN(c3cccc(Cl)c3Cl)CC2)c2c(C)cc(=O)oc2c1 ) is 162 to 163 °C

# melting point (molecule: CC(=O)c1c(C)cc2oc(=O)cc(C)c2c1OCCCCCN1CCN(c2cc(C)cc(C)c2)CC1 ) is 100 to 102 °C

# melting point (molecule: CC(=O)c1c(C)cc2oc(=O)cc(C)c2c1OCCN1CCN(c2ccccc2Br)CC1 ) is 83 to 85 °C

# melting point (molecule: CC(=O)c1c(C)cc2oc(=O)cc(C)c2c1OCCN1CCN(c2ccccc2F)CC1 ) is 118 to 119 °C

# melting point (molecule: CC(=O)c1c(OCCN2CCN(c3cc(C)ccc3C)CC2)ccc2c(C)cc(=O)oc12 ) is 96 to 98 °C

# melting point (molecule: COc1ccccc1N1CCN(CCOc2c(C(C)=O)c(C)cc3oc(=O)cc(C)c23)CC1 ) is 132 to 134 °C

# melting point (molecule: CC(=O)c1c(C)cc2oc(=O)cc(C)c2c1OCCCCCN1CCN(c2cc(C)ccc2C)CC1 ) is 97 to 99 °C
